Sourced from patent US9585387B1

Test name: Solubility of active constituents in dendrimer solutions by HPLC (Example 26)
Assay type: physicochemical
Measurement parameters: Mcylobutanil; 100 g/L loading
# Ratio of Active Ingredient in Dendrimer Solution (ppm) to Active Ingredient in Water (ppm) values compiled below
Lab note: record the figure alone, no unit after it.

For orientation, consider the following solved cases.
| Compound | Result number |
| --- | --- |
| CCC(COCC(O)CN(CC(=O)[O-])CC(=O)[O-])(COCC(O)CN(CC(=O)[O-])CC(=O)[O-])COCC(O)CN(CC(=O)[O-])CC(=O)[O-].[Na+].[Na+].[Na+].[Na+].[Na+].[Na+] (stereo not shown) [Example 10] | 2 |
| CCC(COCC(O)CN(CCOC)CCOC)(COCC(O)CN(CCOC)CCOC)COCC(O)CN(CCOC)CCOC (stereo not shown) [Example 15] | 3 |
| CCC(COCC(O)CN(CCN)CCN)(COCC(O)CN(CCN)CCN)COCC(O)CN(CCN)CCN (stereo not shown) [Example 14] | 4 |

Query compound follows.
stdin: Fill in: Ratio of Active Ingredient in Dendrimer Solution (ppm) to Active Ingredient in Water (ppm) of CCC(COCC(O)CN(CCO)CCO)(COCC(O)CN(CCO)CCO)COCC(O)CN(CCO)CCO (stereo not shown) [Example 2] is ___
stdout: 4

----------
Test name: Solubility of active constituents in dendrimer solutions by HPLC (Example 26)
Type: physicochemical
Measurement parameters: Bifenthrin; 10 g/L loading
Reported endpoint: Ratio of Active Ingredient in Dendrimer Solution (ppm) to Active Ingredient in Water (ppm)
Lab note: record the figure alone, no unit after it.

For orientation, consider the following solved cases.
| Compound | Result number |
| --- | --- |
| CCC(COCC(O)CN(CCOC)CCOC)(COCC(O)CN(CCOC)CCOC)COCC(O)CN(CCOC)CCOC (stereo not shown) | 9 |
| CCC(COCC(O)CN(CC(=O)[O-])CC(=O)[O-])(COCC(O)CN(CC(=O)[O-])CC(=O)[O-])COCC(O)CN(CC(=O)[O-])CC(=O)[O-].[Na+].[Na+].[Na+].[Na+].[Na+].[Na+] (stereo not shown) | 1 |
| CCC(COCC(O)CN(CCO)CCO)(COCC(O)CN(CCO)CCO)COCC(O)CN(CCO)CCO (stereo not shown) | 1 |

Query compound follows.
stdin: Fill in: Ratio of Active Ingredient in Dendrimer Solution (ppm) to Active Ingredient in Water (ppm) of CCC(COCC(O)CN(CCN)CCN)(COCC(O)CN(CCN)CCN)COCC(O)CN(CCN)CCN (stereo not shown) is ___
stdout: 1

----------
Test name: physchem
Format: physicochemical
Measurement parameters: water; at pH 7; trifluralin control without dendrimer; read-out: Solubility assessment by GC assay
Reported endpoint: solubility (µg/mL)
Provide the reading as a plain figure in µg/mL.

stdin: Fill in: solubility of `CCCN(CCC)c1c([N+](=O)[O-])cc(C(F)(F)F)cc1[N+](=O)[O-]` is ___
stdout: 0.22

----------
Test name: Solubility of active constituents in dendrimer solutions by HPLC (Example 26)
Type: physicochemical
Measurement parameters: Thidiazuron; 10 g/L loading
Reported endpoint: Ratio of Active Ingredient in Dendrimer Solution (ppm) to Active Ingredient in Water (ppm)
Lab note: record the figure alone, no unit after it.

For orientation, consider the following solved cases.
| Compound | Result number |
| --- | --- |
| CCC(COCC(O)CN(CC(=O)[O-])CC(=O)[O-])(COCC(O)CN(CC(=O)[O-])CC(=O)[O-])COCC(O)CN(CC(=O)[O-])CC(=O)[O-].[Na+].[Na+].[Na+].[Na+].[Na+].[Na+] (stereo not shown) | 19 |
| CCC(COCC(O)CN(CCOC)CCOC)(COCC(O)CN(CCOC)CCOC)COCC(O)CN(CCOC)CCOC (stereo not shown) | 5 |

stdin: Fill in: Ratio of Active Ingredient in Dendrimer Solution (ppm) to Active Ingredient in Water (ppm) of CCC(COCC(O)CN(CCN)CCN)(COCC(O)CN(CCN)CCN)COCC(O)CN(CCN)CCN (stereo not shown) is ___
stdout: 46

stdin: Fill in: Ratio of Active Ingredient in Dendrimer Solution (ppm) to Active Ingredient in Water (ppm) of CCC(COCC(O)CN(CCO)CCO)(COCC(O)CN(CCO)CCO)COCC(O)CN(CCO)CCO (stereo not shown) is ___
stdout: 7
